TARGET OF ASSAY: UniProtKB P21453
Sequence (P21453 whole entry): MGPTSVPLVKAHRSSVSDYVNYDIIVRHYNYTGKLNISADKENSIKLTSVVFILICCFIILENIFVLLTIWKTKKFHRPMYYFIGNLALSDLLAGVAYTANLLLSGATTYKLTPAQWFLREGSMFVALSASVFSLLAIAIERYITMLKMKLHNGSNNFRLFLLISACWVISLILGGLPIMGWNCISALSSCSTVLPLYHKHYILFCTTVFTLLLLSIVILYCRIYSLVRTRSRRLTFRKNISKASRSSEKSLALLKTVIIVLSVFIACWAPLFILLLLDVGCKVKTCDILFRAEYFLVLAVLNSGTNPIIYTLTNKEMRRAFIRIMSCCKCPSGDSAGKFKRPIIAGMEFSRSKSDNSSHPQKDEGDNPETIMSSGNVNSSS
ASSAY METHOD TEXT: Receptor [35S] GTPγS Binding Assay, S1P1
CONDITIONS USED: membranes from S1P1/CHO cells
OBSERVED PROPERTY: EC50 (nM)

Example entries begin here.
NC1(COP(=O)(O)O)CCN(C(=O)c2ccc(/C(=N/OCCCc3ccccc3)C(F)(F)F)cc2)C1 (stereo not shown) | 626
C/C(=N\OCCc1ccccc1)c1ccc(C2CC[C@](N)(COP(=O)(O)O)C2)cc1 (stereo in doubt) | 44.4
C/C(=N\OCCCc1ccccc1)c1ccc(C(=O)N2CCCC(N)(COP(=O)(O)O)C2)cc1 (single isomer, unassigned) [Example 68] | 399

P: C/C(=N\OCc1ccc(C2CCCCC2)c(C(F)(F)F)c1)c1ccc([C@@H]2CC[C@](N)(COP(=O)(O)O)C2)cc1
Q: C/C(=N\OCc1ccc(C2CCCCC2)c(C(F)(F)F)c1)c1ccc(C(=O)N2CCCC(N)(COP(=O)(O)O)C2)cc1 (single isomer, unassigned) [Example 66]
Query :: Quick check, higher EC50 between P and Q ? Which one? Tell me its label.
Result :: Q
(Q: 194 nM, P: 38.1 nM)

Data credit: patent US11059784B2
